Target: Protein deacetylase HDAC6 (Homo sapiens, UniProt Q9UBN7)
Sequence (Q9UBN7 whole entry): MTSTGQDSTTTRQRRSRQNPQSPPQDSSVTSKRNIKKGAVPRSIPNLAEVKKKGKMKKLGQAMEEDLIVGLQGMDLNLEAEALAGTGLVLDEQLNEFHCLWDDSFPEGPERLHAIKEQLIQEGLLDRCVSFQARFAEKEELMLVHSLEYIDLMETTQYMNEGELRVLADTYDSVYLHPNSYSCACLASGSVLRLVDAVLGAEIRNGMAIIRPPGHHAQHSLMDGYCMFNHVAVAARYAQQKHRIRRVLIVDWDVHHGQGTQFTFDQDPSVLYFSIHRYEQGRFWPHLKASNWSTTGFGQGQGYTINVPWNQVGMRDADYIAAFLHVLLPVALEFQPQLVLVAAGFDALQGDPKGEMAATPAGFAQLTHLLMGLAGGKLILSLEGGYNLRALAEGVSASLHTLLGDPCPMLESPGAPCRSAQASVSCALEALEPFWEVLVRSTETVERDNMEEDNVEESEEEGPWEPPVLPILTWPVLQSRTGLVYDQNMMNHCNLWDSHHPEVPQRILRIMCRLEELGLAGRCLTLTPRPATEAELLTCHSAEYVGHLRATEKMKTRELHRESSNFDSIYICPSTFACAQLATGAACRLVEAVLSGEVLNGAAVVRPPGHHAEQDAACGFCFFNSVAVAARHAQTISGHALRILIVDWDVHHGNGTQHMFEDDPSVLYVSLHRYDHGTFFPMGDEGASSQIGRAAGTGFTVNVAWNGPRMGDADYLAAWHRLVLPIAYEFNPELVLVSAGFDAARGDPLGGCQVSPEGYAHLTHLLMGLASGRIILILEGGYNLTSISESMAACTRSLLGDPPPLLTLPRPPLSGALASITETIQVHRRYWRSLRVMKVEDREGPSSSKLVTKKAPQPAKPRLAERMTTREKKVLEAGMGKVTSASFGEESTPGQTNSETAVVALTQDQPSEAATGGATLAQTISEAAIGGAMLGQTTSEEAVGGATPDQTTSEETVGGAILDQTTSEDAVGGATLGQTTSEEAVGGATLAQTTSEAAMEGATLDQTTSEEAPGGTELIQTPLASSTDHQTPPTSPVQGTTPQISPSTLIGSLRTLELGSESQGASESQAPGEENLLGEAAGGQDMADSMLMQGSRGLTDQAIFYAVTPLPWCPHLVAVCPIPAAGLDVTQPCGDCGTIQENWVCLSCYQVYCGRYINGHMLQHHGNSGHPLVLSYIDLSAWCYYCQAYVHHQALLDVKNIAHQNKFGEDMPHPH
Assay: Inhibition of HDAC6 in […] cells assessed as increase in alpha-tubulin acetylation measured after 24 hrs by Western blot analysis
pEC50: −log10 of the molar value.
ENDPOINT NAME: pEC50

In [3]: df
Out[3]:
                                        mol  result_number
0    O=C(NO)c1ccc(Nc2c3ccccc3nc3ccccc23)cc1           5.10
1  O=C(NO)c1ccc(Nc2c3ccccc3nc3ccc(Br)cc23)cc1           5.10
